# Measured target: "5-HT1 -like" receptor (dog isolated saphenous vein strip) (Canis lupus familiaris)
# Construct: on dog isolated saphenous vein strip; from tissue; host or cells: dog isolated saphenous vein strip
# Sequence (P79250 whole entry): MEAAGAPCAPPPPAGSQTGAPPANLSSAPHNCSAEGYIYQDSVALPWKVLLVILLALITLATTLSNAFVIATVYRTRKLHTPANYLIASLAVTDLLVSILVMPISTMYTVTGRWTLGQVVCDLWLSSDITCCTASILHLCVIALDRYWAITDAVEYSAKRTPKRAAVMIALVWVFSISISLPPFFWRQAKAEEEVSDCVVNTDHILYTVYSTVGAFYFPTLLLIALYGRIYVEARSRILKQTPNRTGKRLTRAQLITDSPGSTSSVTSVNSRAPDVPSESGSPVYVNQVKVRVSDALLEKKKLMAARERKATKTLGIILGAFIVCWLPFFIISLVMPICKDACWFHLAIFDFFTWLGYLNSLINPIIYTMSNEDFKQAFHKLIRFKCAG
# Protocol: contraction of isolated dog saphenous vein strip ("5-HT1 -like" receptor agonist activity)
# Type: cell-based
# Setup conditions: ratio to 5-HT (higher = less potent)
The compounds listed here are annotated with their RELATIVE POTENCY EC50 (compound)/EC50 (5-HT).
Measure: RELATIVE POTENCY EC50 (compound)/EC50 (5-HT)

Compound | Measured target | Measured
CC(C)(O)CCc1ccc2[nH]cc(C[C@H]3CCCN3CC3CCCNC3=O)c2c1 (single isomer, unassigned) [Example 9B] | "5-HT1 -like" receptor (dog isolated saphenous vein strip) (Canis lupus familiaris) | 78
CC(C)(O)CCc1ccc2[nH]cc(C[C@H]3CCCN3C[C@H]3CCCN3S(C)(=O)=O)c2c1 | "5-HT1 -like" receptor (dog isolated saphenous vein strip) (Canis lupus familiaris) | 2.4
CC(C)(O)CCc1ccc2[nH]cc(C[C@H]3CCCN3CC3CCCNC3=O)c2c1 (single isomer, unassigned) [Example 9A] | "5-HT1 -like" receptor (dog isolated saphenous vein strip) (Canis lupus familiaris) | 71
CC(C)(O)CCc1ccc2[nH]cc(C[C@H]3CCCN3CC3CCN(Cc4ccccc4)C3)c2c1 (stereo partly shown) | "5-HT1 -like" receptor (dog isolated saphenous vein strip) (Canis lupus familiaris) | 11.0
